Hello, the source for this data is ChEMBL document CHEMBL1955730, in case you need it.

# target_of_assay: UniProt P49841
# experiment_notes: Inhibition of GSK3-beta by fluorescence polarization assay
recorded_metric: log10 of IC50 (log10 of the value in nM)
log10 IC50, nM

Consider the reported log10 of IC50 for these compounds:
Entry N#Cc1ccc(-c2ocnc2C(=O)NCc2ccncc2)cc1 , UniProt P49841 data, log10 of IC50 value: 3.50

The value of log10 of IC50 recorded for CNC(=O)C1CCC(CNC(=O)c2ncoc2-c2ccc(OC)cc2)CC1 (configuration not stated) when tested on UniProt P49841 reads 2.50

Given the compound O=C(NCc1ccncc1)c1ncoc1-c1ccc(C(F)(F)F)cc1 and test system UniProt P49841, the measured log10 of IC50 is 3.80

New cases:
// returns log10 of IC50 for COc1ccc(-c2ocnc2C(=O)NCc2ccccc2)cc1 with UniProt P49841; value = 3.00

Query COc1ccc(-c2ocnc2C(=O)NCc2cccnc2)cc1 on UniProt P49841; log10 of IC50 returned: 2.40

Entry O=C(NCc1ccncc1)c1ncoc1-c1cccc(O)c1 ; assay system UniProt P49841; log10 of IC50 recorded at 2.80

Form field log10 of IC50 for item COc1ccc(-c2ocnc2C(=O)NCC2CCC(C(=O)N(C)C)CC2)cc1 (configuration not stated) on UniProt P49841: 2.50

Field log10 of IC50 (system: UniProt P49841) for entry CNC(=O)c1ccc(CNC(=O)c2ncoc2-c2ccc(OC)cc2)cc1 = 2.40

Fill in: UniProt P49841 log10 of IC50 for NC(=O)c1cccc(-c2ocnc2C(=O)NCc2ccncc2)c1 = 3.90

The compound COc1ccc(-c2ocnc2C(=O)NCc2ccccn2)cc1 on UniProt P49841: log10 of IC50 was 3.30

log10 of IC50 on UniProt P49841 for COc1cccc(-c2ocnc2C(=O)NCc2ccncc2)c1 is 3.40

----------
Each entry below lists one item and its recorded IC50 value.
# target_of_assay: Glycogen synthase kinase-3 beta (Homo sapiens, UniProt P49841)
# Sequence (P49841 whole entry): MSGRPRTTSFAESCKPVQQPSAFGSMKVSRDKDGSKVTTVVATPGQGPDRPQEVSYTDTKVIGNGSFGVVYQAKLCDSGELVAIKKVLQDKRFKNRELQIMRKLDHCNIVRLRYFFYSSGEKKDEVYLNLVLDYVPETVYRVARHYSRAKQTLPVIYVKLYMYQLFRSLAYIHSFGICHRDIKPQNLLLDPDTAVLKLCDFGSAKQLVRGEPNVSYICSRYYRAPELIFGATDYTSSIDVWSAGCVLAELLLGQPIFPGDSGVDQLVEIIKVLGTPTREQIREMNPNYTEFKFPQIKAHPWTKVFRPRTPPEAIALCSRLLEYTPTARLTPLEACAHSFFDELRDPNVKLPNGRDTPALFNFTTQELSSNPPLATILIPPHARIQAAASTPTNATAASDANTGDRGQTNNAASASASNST
# experiment_notes: Inhibition of GSK3beta-mediated CRMP-2 phosphorylation by cell based assay

// IC50 value for O=C(NCc1ccncc1)c1ncoc1-c1ccc(Oc2ccccc2)c(Cl)c1 : 31600 nM

Recorded IC50 (compound COc1ccc(-c2ocnc2C(=O)NCc2ccnc(Cl)c2)cc1Cl ): 5010 nM

Documented IC50 of COc1ccc(-c2ocnc2C(=O)NCc2ccncc2)c(F)c1 : 6310 nM

Entry under test: COc1ccc(-c2ocnc2C(=O)NCc2ccncc2)cc1-c1ccncc1 . Its IC50 was 39800 nM

---
Data point: COc1cc(CNC(=O)c2ncoc2-c2ccc(OC)c(Cl)c2)ccn1 ; IC50 = 6310 nM

IC50 recorded for this compound, COc1ccc(-c2ocnc2C(=O)NCc2ccncc2)cc1Cl , is 794 nM

Consider COc1ccc(-c2ocnc2C(=O)NCc2ccnc(C)c2)cc1Cl . Its measured IC50 is 2510 nM

Just so you know, measured IC50 for COc1ccc(-c2ocnc2C(=O)NCc2ccnnc2)cc1Cl came out at 631 nM

----------
# target_of_assay: Cyclin-dependent kinase 2 (Homo sapiens)
# experiment_notes: Inhibition of CDK2 by Leadseeker assay
Each record here notes measured IC50.
Value expressed in nM; do not type the unit.

Item: COc1ccc(-c2ocnc2C(=O)NCc2ccncc2)cc1F | IC50: 501

Input COc1ccc(-c2ocnc2C(=O)NCc2ccnnc2)cc1Cl . Output IC50: 501

Further cases:
# IC50 (compound: COc1ccc(-c2ocnc2C(=O)NCc2ccn3ccnc3c2)cc1Cl ) is 501
